quantity measured: pKi
By convention, pKi is the negative base-10 log of a molar concentration.

# lookup: "C[C@@H](NP(=O)(O)O)C(=O)N1CCC[C@H]1C(=O)O" on Angiotensin-converting enzyme (Homo sapiens), pKi = 8.85

###

Where a SMILES comes first, the peptide text is derived from it. The star is where a group is joined. Bz = O=C(c1ccccc1)*
Kindly supply the reported IC50 values for the records listed here.
Please give a number only; it is taken to be in µM.

Param item: C[C@H](NC(=O)[C@H](Cc1ccccc1)NC(=O)c1ccccc1)C(=O)N1CCC[C@H]1C(=O)O (Bz-Phe-Ala-Pro-OH) ; param system: Angiotensin-converting enzyme (Homo sapiens); output IC50: 0.0032

Per the reported Angiotensin-converting enzyme (Homo sapiens) data, "O=C(O)[C@@H]1CCCN1C(=O)CCS" has IC50 of 1800
